Here, each record is paired with measured % INHIB (inhibition of human microsomal triglyceride transfer protein mRNA levels) data.
Tested on: human microsomal triglyceride transfer protein mRNA
Test: Antisense inhibition of human microsomal triglyceride transfer protein mRNA levels, quantitative real-time PCR; also: test concentration or dose not given here
Settings: averages from two experiments
Strand notation (5' to 3'): a small letter for the sugar, then the base; units joined by * are phosphorothioate-linked, units joined directly phosphodiester-linked; [ ] holds rarer units or linkages, { } end groups; capitals alone tell only the bases. e = 2'-O-(2-methoxyethyl) (MOE); [5mC] = 5-methylcytosine; d = 2'-deoxy (DNA)
Hi! Could you send only the number? It should be in %, unit omitted.

Substance	Unit of measure	Test value
144412 (eG*e[5mC]*eG*eG*eT*dA*dG*d[5mC]*d[5mC]*d[5mC]*dA*d[5mC]*dG*d[5mC]*dT*eG*eT*e[5mC]*eT*eT; antisense) [compound 144412]	%	34
144432 (eT*eA*e[5mC]*e[5mC]*eG*dT*dG*dA*dA*dG*dA*d[5mC]*d[5mC]*dA*dG*e[5mC]*e[5mC]*eT*eT*e[5mC]; antisense) [compound 144432]	%	0

Find the measured % INHIB (inhibition of human microsomal triglyceride transfer protein mRNA levels): item 144448 (e[5mC]*e[5mC]*e[5mC]*eG*eT*d[5mC]*dA*dT*dG*d[5mC]*dT*dT*dA*dA*dG*eG*eA*eA*eG*eT) [compound 144448] , target or system human microsomal triglyceride transfer protein mRNA.
49

Find the measured % INHIB (inhibition of human microsomal triglyceride transfer protein mRNA levels): item 144415 (eG*eT*eG*eG*eT*dT*d[5mC]*d[5mC]*dA*dG*dA*dG*d[5mC]*dT*dT*eA*eA*e[5mC]*eT*eG; antisense) [compound 144415] , target or system human microsomal triglyceride transfer protein mRNA.
0

Find the measured % INHIB (inhibition of human microsomal triglyceride transfer protein mRNA levels): item 144440 (eA*eA*eT*eA*eT*d[5mC]*dA*d[5mC]*dA*dG*dG*dT*d[5mC]*dA*dG*eT*eT*eT*e[5mC]*eA; antisense) [compound 144440] , target or system human microsomal triglyceride transfer protein mRNA.
40
